In this section we review reported thermal shift delta Tm values for a set of compounds.
tested on: LOC_OS01G01410-cb001; assay: thermal shift delta Tm vs DMSO control; higher = stronger stabilization (binding); settings: 12.5 µM; protein concentration 2 µM;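 note: purified Escherichia coli-expressed rice kinase domain construct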

- Compound: "CN(C)CCOc1ccc(-c2nc(-c3ccncc3)c(-c3ccc4c(c3)CC/C4=N\\O)[nH]2)cc1"
  Measure Unit: "°C"
  thermal shift delta Tm: 1.77
- Compound: "CNC(=O)c1cc(Oc2ccc(NC(=O)Nc3ccc(Cl)c(C(F)(F)F)c3)cc2)ccn1 [Sorafenib]"
  Measure Unit: "°C"
  thermal shift delta Tm: 1.65
- Compound: "O=C1NC(=O)C(c2cnc3ccccn23)=C1c1cn2c3c(cc(F)cc13)CN(C(=O)N1CCCCC1)CC2"
  Measure Unit: "°C"
  thermal shift delta Tm: 0.36
